Target: T1, human APRIL (5860-AP-010/CF, R&D Systems) (human, UniProt O75888 115-250, limits assumed)
T1 construct: Bought protein
T1 sequence (looked up): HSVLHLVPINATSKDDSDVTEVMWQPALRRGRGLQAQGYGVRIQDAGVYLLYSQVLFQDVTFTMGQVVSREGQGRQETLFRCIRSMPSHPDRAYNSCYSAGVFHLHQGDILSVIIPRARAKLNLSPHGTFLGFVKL
Assay: SPR (Biacore), sample captured on Protein A, antigen flowed, 1:1 fit
Parameter Measured: pKd
Scale note: pKd = -log10(concentration in M).

Param item = TACI-9-10Fc (Fc fusion, TACI-9 with K6E and K10E, fused to Fc; two identical polypeptides) SLSCREEQGEFYDHLLRDCISCASICGQHPKQCAYFCENKLDKTHTCPPCPAPEAEGAPSVFLFPPKPKDTLMISRTPEVTCVVVDVSHEDPEVKFNWYVDGVEVHNAKTKPREEQYNSTYRVVSVLTVLHQDWLNGKEYKCKVSNKALPSSIEKTISKAKGQPREPQVYTLPPSRDELTKNQVSLTCLVKGFYPSDIAVEWESNGQPENNYKTTPPVLDSDGSFFLYSKLTVDKSRWQQGNVFSCSVMHEALHNHYTQKSLSLSPGK ; retrieve measured pKd.
10.89
